Reference for the values: patent US20060148715A1

# systemName: T1, Stat3-E638P (human, UniProt P40763 1-770)
# T1 construct: Produced in Sf9 cells; CD spectrum essentially identical to wild type
# T1 sequence (P40763 other isoform, or with tags, fused parts or gaps E638P E638P limits assumed): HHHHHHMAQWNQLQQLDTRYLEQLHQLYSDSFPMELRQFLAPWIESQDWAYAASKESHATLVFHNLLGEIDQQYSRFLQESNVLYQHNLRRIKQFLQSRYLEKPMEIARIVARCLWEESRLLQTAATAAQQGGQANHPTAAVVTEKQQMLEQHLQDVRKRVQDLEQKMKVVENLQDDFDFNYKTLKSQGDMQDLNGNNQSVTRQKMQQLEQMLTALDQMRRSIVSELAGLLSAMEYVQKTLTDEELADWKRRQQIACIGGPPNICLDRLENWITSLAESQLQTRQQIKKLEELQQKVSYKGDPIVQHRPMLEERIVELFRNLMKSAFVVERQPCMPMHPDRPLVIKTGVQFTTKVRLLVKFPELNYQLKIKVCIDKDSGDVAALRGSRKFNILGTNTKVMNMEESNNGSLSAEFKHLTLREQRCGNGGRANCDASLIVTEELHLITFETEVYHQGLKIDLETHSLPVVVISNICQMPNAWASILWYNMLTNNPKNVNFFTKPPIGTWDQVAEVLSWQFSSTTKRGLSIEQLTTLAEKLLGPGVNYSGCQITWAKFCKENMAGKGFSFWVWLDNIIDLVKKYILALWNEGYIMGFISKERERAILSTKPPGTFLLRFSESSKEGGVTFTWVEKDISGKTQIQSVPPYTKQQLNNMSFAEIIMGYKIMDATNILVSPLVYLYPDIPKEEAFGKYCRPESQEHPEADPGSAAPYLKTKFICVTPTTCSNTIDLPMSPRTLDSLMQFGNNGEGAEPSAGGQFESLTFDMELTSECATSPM
# method: peptide pull-down: biotinylated peptide on NeutrAvidin agarose, purified His-tagged Stat3 protein added, bound protein immunoblotted with Stat3 mAb
Non-standard residues stand in square brackets, D forms with d. No end group written: not given here. *: point of attachment. d‑Biotin‑LC = N-terminal biotin (d-Biotin-LC), O=C(CCCC[C@@H]1SC[C@@H]2NC(=O)N[C@@H]21)NCCCCCC(=O)*; pY = N[C@@H](Cc1ccc(OP(=O)(O)O)cc1)C(=O)O
quantityMeasured: binding result

# example entries with known answers
{d‑Biotin‑LC}-TLVQT[pY]VLQGDP [pY704 phosphododecapeptide (G-CSFR)] :: no binding
{d‑Biotin‑LC}-SDQVL[pY]GQLLGS [pY729 phosphododecapeptide (G-CSFR)] :: no binding
{d‑Biotin‑LC}-TLVQTYVLQGDP [Y704 non-phosphorylated dodecapeptide (G-CSFR)] :: no binding
{d‑Biotin‑LC}-PGPGH[pY]LRCDST [pY744 phosphododecapeptide (G-CSFR)] :: no binding
{d‑Biotin‑LC}-PSPLS[pY]ENLTFQ [pY764 phosphododecapeptide (G-CSFR)] :: no binding

Return binding result (reported value) for this binder: {d‑Biotin‑LC}-PGPGHYLRCDST [Y744 non-phosphorylated dodecapeptide (G-CSFR)]
no binding
